Every entry's value here was drawn from ChEMBL document CHEMBL1201862.

Tested on: MDA-MB-435
Assay: NCI tumour cell line growth inhibition, 48 h
The source made the active and inactive calls. Cut-off read from the data, not from the text of the source: active = GI50 up to about 1.1 µM and inactive = higher.
Outcome codes: active, inactive

>  <MOLECULE>
Cn1c(=O)c2c(nc3n2CCCC(=O)N3CC(O)CCl)n(C)c1=O (stereo unspecified)

>  <DISCRETE LABEL>
inactive

$$$$
>  <MOLECULE>
CCCCCCCCCCCC(=O)N(CCCCCCCCC)CC(O)C(O)C(OC1OC(CO)C(O)C(O)C1O)C(O)CO (stereo unspecified)

>  <DISCRETE LABEL>
inactive

$$$$
>  <MOLECULE>
O=C(Nc1nn(C(=O)c2ccc(Cl)cc2)c(=O)s1)c1ccc(Cl)cc1

>  <DISCRETE LABEL>
inactive

$$$$
>  <MOLECULE>
OCC1OC(NC(=S)NCSCCC(F)(F)C(F)(F)C(F)(F)C(F)(F)C(F)(F)C(F)(F)F)C(O)C(O)C1O (stereo unspecified)

>  <DISCRETE LABEL>
inactive

$$$$
>  <MOLECULE>
C/C(=N\Nc1nc2ccccc2o1)c1ncccn1

>  <DISCRETE LABEL>
active

$$$$
>  <MOLECULE>
C=C(CCC/C(C)=C/C=C/[C@H](C)CCCc1ccoc1)C[C@@H]1OC(=O)[C@H](C)[C@@H]1O

>  <DISCRETE LABEL>
inactive

$$$$

* * *

Tested on: HL-60
Experiment: NCI tumour cell line growth inhibition, 48 h
Active and inactive are the calls of the source. Cut-off read from the data, not from the text of the source: active = GI50 up to about 1.1 µM and inactive = higher.
GI50 values for the compounds below.
READOUT TYPE: GI50

>  <COMPOUND>
CCOC(=O)C(Cc1ccc2c(c1)CCC2)(Cc1ccc2c(c1)CCC2)C(=O)OCC

>  <TARGET OF ASSAY>
HL-60

>  <READOUT TYPE>
GI50

>  <RESULT>
31.5 µM (inactive)

$$$$
>  <COMPOUND>
NCC(O)CSP(=O)(O)O (stereo not drawn)

>  <TARGET OF ASSAY>
HL-60

>  <READOUT TYPE>
GI50

>  <RESULT>
> 100 µM (inactive)

$$$$
>  <COMPOUND>
Nc1nc(NCC2(CO)CC(CCc3ccccc3)C2)cc(=O)[nH]1 (stereo not drawn)

>  <TARGET OF ASSAY>
HL-60

>  <READOUT TYPE>
GI50

>  <RESULT>
82.8 µM (inactive)

$$$$
>  <COMPOUND>
NS(=O)(=O)c1ccc(Nc2c3ccccc3nc3c(C(=O)N4CCN(CCO)CC4)cccc23)cc1

>  <TARGET OF ASSAY>
HL-60

>  <READOUT TYPE>
GI50

>  <RESULT>
29.2 µM (inactive)

$$$$
>  <COMPOUND>
O=C(O)C(CO)NC(=O)C1C(C(=O)O)C(c2ccccc2[N+](=O)[O-])C=C(c2ccco2)N1c1ccncc1 (stereo not drawn)

>  <TARGET OF ASSAY>
HL-60

>  <READOUT TYPE>
GI50

>  <RESULT>
2.97 µM (inactive)

$$$$
>  <COMPOUND>
O=C(CCC(=O)Nc1ccc(Cl)c(Cl)c1)CC(=O)c1ccc(Cl)cc1

>  <TARGET OF ASSAY>
HL-60

>  <READOUT TYPE>
GI50

>  <RESULT>
> 100 µM (inactive)

$$$$
>  <COMPOUND>
CCCCCCCCCCCC(=O)N(CCCCCCCCC)CC(O)C(O)C(OC1OC(CO)C(O)C(O)C1O)C(O)CO (stereo not drawn)

>  <TARGET OF ASSAY>
HL-60

>  <READOUT TYPE>
GI50

>  <RESULT>
25.6 µM (inactive)

$$$$
>  <COMPOUND>
Cc1cc(C)nc(NS(=O)(=O)c2ccc(NC(=O)c3cccc4c(NNc5ccc(S(=O)(=O)N=C(N)N)cc5)c5ccccc5nc34)cc2)n1

>  <TARGET OF ASSAY>
HL-60

>  <READOUT TYPE>
GI50

>  <RESULT>
> 50 µM (inactive)

$$$$
